Biological target: c-Met M1250T (Homo sapiens, UniProt P08581, M1250T)
Sequence (P08581 25-1390 M1250T): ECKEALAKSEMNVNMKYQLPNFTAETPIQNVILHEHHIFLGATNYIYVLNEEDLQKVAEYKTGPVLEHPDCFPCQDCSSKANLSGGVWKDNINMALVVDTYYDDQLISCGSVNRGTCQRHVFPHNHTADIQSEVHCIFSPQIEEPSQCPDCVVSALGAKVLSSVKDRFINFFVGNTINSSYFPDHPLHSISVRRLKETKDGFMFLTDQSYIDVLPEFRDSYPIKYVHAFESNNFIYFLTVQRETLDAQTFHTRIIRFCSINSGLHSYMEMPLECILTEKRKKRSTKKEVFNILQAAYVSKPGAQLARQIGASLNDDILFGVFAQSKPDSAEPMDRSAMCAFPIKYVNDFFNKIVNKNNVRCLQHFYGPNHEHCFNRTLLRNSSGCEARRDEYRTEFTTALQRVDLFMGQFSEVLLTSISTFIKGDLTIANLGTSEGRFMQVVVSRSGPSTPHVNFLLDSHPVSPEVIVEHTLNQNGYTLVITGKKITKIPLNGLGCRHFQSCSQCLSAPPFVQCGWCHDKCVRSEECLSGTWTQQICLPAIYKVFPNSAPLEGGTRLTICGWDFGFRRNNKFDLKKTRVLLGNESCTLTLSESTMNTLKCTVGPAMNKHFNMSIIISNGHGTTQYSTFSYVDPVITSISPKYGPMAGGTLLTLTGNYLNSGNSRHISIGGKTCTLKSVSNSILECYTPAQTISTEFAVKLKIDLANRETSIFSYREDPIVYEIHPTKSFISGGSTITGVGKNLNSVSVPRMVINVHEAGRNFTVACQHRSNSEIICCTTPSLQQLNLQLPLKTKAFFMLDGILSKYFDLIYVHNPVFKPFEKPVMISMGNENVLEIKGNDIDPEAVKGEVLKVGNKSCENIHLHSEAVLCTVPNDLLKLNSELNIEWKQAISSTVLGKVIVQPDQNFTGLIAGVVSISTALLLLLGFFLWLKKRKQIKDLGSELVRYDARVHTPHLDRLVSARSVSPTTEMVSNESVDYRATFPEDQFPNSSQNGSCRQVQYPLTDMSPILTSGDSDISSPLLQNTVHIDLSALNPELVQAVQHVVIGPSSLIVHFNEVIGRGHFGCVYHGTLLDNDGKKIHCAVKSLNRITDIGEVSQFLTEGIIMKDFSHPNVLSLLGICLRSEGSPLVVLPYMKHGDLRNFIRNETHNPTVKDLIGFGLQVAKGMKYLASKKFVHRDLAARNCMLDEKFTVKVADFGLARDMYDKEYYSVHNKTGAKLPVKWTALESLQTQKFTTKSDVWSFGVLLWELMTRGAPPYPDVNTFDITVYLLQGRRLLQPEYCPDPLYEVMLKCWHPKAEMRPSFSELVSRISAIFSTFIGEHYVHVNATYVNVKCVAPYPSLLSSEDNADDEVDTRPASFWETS
Experiment: Tyrosine kinase HTRF assay, c-Met M1250T
Procedure: On the other hand, comprehensive understanding the off-target kinase inhibition is critical for any kinase inhibitors, particularly to help explain the correlations between efficacy and potential side effects. […] The reactions were quenched by addition 10 µL mixed detection solution. […] IC50 value was calculated from the inhibition curve using GraphPad Prism 5.0 software (La Jolla, CA).
ENDPOINT: pIC50
Give only the number. pIC50 is defined as minus log10 of concentration in molar units.

Name the reported pIC50 value associated with the compound O=C(Nc1ccc(Oc2ccnc(Cl)c2Cl)c(F)c1)c1nc(-c2ccc(F)c(Cl)c2)cs1 [Compound 51am] 7.58
